- assayName: ATG_DR4_LXR_CIS: Attagene CIS-FACTORIAL HepG2 Assay for human Liver X Receptor (LXR), DR4 submotif (AID 2282929)
- reportedConditions: HepG2 Attagene DR4 cis-reporter, mRNA transcription; actives raise or lower the signal
Active and inactive are the calls of the source. Rule for the calls: active = hit-call score of the fitted dose curve at least 0.9, where 1 is the maximum; inactive = score below 0.9.
Result category, one only: active, inactive

Q) Which result was noted for this compound in the test: `O=C(O)CCC(=O)O`
A) inactive

Q) Which result was noted for this compound in the test: CCC(C)C(=O)OC (stereo unspecified)
A) inactive

Q) Which result was noted for this compound in the test: `O=C(OCc1ccccc1)c1ccc(O)cc1`
A) inactive

Q) Which result was noted for this compound in the test: `Oc1c(Cl)cc(Cl)c(Cl)c1Cl`
A) inactive

Q) Which result was noted for this compound in the test: `Cn1cccc1`
A) inactive

Q) Which result was noted for this compound in the test: `CCCCCCCC(=O)OCC`
A) inactive

Q) Which result was noted for this compound in the test: `CC(C)OC(=O)c1ccccc1`
A) inactive

Q) Which result was noted for this compound in the test: `CCCCC(=O)O`
A) inactive

Q) Which result was noted for this compound in the test: `CC=C(C)C=CC=C(C)C`
A) inactive

Q) Which result was noted for this compound in the test: CCC(=O)C1CC(C(C)C)CC=C1C (stereo unspecified)
A) inactive

Q) Which result was noted for this compound in the test: `CCCCCCCCCCCC(=O)N(C)CC(=O)O`
A) active

Q) Which result was noted for this compound in the test: `CCCCNS(=O)(=O)c1ccc(C)cc1`
A) inactive

Q) Which result was noted for this compound in the test: `O=C(Nc1ccccc1)c1cc(Cl)ccc1O`
A) inactive

Q) Which result was noted for this compound in the test: `CC12CCC(CC1)C(C)(C)O2`
A) inactive

Q) Which result was noted for this compound in the test: `C=CC(=O)NCOCCCC`
A) inactive

Q) Which result was noted for this compound in the test: `O=C(Oc1ccccc1)c1ccccc1C(=O)Oc1ccccc1`
A) inactive

Q) Which result was noted for this compound in the test: `CCNc1nc(NC(C)(C)C)nc(OC)n1`
A) inactive

Q) Which result was noted for this compound in the test: `CC(=O)OCCc1ccccc1`
A) inactive

Q) Which result was noted for this compound in the test: CCC1(C)C(=O)N(Cl)C(=O)N1Cl (stereo unspecified)
A) inactive

Q) Which result was noted for this compound in the test: `CCOC(=O)/C=C\C(=O)OCC`
A) inactive

Q) Which result was noted for this compound in the test: `O=C(O)C(F)(F)C(F)(F)C(F)(F)C(F)(F)C(=O)O`
A) inactive

Q) Which result was noted for this compound in the test: `COC(=O)c1ccc(C(=O)OC)c(C(=O)OC)c1`
A) inactive

Q) Which result was noted for this compound in the test: `c1ccc2cnccc2c1`
A) inactive

Q) Which result was noted for this compound in the test: `C=C1C[C@H]2[C@@H]3C=C(C)C4=CC(=O)CC[C@]4(C)[C@H]3CC[C@]2(C)[C@@]1(OC(C)=O)C(C)=O`
A) active

Q) Which result was noted for this compound in the test: `Clc1cc(Cl)c(Cl)c(Cl)c1Cl`
A) inactive

Q) Which result was noted for this compound in the test: `CCCCC/C=C\C/C=C\CCCCCCCC(=O)O`
A) active

Q) Which result was noted for this compound in the test: `CC(C)(C)N`
A) inactive

Q) Which result was noted for this compound in the test: `CC1(C)[C@@H]2CC[C@@]1(C)C(=O)C2`
A) inactive

Q) Which result was noted for this compound in the test: CC(C)COC(=O)CC(C(=O)OCC(C)C)S(=O)(=O)O (stereo unspecified)
A) inactive

Q) Which result was noted for this compound in the test: `C/C=C/C=C/CCCCCCCO`
A) active

Q) Which result was noted for this compound in the test: CC1OC(=O)C(C)OC1=O (stereo unspecified)
A) inactive
